Molecular target: SHV-1 (Klebsiella pneumoniae, UniProt P0AD64)
Construct: made in house; host or cells: E. coli
Sequence (P0AD64 22-286): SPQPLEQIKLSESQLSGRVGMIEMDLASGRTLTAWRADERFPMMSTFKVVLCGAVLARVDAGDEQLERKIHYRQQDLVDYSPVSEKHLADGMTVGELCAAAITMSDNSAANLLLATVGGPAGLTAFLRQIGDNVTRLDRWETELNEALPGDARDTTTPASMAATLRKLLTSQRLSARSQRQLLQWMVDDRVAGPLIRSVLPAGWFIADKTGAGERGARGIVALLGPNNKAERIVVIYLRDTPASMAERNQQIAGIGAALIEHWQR
Test: β-lactamase inhibitory activity, determination of IC50 (nitrocefin hydrolysis)
Type: biochemical
pIC50: −log10 of the molar value.
Label criterion met when pIC50 is at or above 8; otherwise label criterion not met.

Query block: Can O=C1N2CC=C(c3cn[nH]c3)C(C2)N1OS(=O)(=O)[O-].[Na+] (centres unmarked) [Example 1, sulfate] be said to have pIC50 at or above 8?
Result block: criterion not met

Query block: Hi, just wondering whether Cn1cc(C2=CCN3CC2N(OS(=O)(=O)[O-])C3=O)ccc1=O.[Na+] (centres unmarked) [Example 8, sulfate] shows pIC50 of 8 or higher.
Result block: criterion not met

Query block: Textbook exercise: given the entry O=C1N2CC(c3cn[nH]c3)=CC(C2)N1OS(=O)(=O)[O-].[Na+] (centres unmarked) [Example 43, sulfate] , state whether its pIC50 is greater than or equal to 8.
Result block: criterion met

Query block: Please tell me: is the compound NCc1cnc(C2=CC3CN(C2)C(=O)N3OS(=O)(=O)O)s1 (centres unmarked) [Example 38] at or over 8 in terms of pIC50?
Result block: criterion met

// data source = patent US10183943B2
